Entry source: the supplement of paper PMC8728848

target: Fuc(a1-2)Gal(b1-3)GalNAc(b1-4)[Neu5Ac(a2-3)]Gal(b1-4)Glc; assay: glycan array binding signal (z-score within array); higher = stronger binding; details: glycan notation: IUPAC condensed, linker removed
Shown is part of a subset that was picked to be rich in the strongest signals.

[
  {
    "binder": "Microvirin-2 (Microcystis aeruginosa) (protein) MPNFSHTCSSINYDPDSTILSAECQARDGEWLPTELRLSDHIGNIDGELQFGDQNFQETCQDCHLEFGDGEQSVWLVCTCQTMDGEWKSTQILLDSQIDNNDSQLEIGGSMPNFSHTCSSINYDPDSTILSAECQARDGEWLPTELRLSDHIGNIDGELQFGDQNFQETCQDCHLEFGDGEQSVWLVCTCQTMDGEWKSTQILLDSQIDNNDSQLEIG",
    "glycan array binding signal (z-score)": -0.133
  },
  {
    "binder": "CD72 ectodomain (Homo sapiens), P21854 (protein) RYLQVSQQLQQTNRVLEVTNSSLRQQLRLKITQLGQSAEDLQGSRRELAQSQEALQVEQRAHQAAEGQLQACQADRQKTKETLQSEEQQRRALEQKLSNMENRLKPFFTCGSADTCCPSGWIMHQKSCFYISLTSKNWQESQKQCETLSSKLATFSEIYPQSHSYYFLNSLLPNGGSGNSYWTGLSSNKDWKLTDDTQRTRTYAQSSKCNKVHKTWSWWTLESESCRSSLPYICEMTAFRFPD",
    "glycan array binding signal (z-score)": 0.01
  },
  {
    "binder": "UEA-I (Ulex europaeus), P22972 (protein) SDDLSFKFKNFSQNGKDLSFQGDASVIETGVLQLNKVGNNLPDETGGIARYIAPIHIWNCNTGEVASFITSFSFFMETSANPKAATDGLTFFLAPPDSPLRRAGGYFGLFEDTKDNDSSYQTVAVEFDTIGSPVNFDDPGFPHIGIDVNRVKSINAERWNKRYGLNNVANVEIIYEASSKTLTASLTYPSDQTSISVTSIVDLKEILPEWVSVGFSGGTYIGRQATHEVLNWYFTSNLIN",
    "glycan array binding signal (z-score)": -0.19
  },
  {
    "binder": "Gal 8 (Mus musculus), Q9JL15 (protein) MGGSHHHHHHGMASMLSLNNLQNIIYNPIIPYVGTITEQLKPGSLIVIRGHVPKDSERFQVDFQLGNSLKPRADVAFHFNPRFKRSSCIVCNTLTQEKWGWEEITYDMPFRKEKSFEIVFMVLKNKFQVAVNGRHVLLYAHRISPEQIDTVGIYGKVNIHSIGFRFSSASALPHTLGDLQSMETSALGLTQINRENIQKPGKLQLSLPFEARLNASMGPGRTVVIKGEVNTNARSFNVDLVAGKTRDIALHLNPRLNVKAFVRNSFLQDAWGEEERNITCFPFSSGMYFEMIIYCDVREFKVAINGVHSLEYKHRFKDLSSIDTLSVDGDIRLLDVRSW",
    "glycan array binding signal (z-score)": -0.259
  },
  {
    "binder": "ABA (Agaricus bisporus), Q00022 (protein) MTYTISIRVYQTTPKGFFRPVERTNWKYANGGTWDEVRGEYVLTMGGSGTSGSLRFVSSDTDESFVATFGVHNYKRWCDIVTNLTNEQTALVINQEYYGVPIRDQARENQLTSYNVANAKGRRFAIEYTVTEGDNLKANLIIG",
    "glycan array binding signal (z-score)": -0.192
  }
]
